- System: HIV-1
- Test summary: NCI in vitro anti-HIV drug screen: XTT-formazan assay, protection of T4 lymphocytes (CEM) from HIV-1 cytopathic effects
- Type: cell-based, human immunodeficiency virus (HIV-1)
- Measurement conditions: Human immunodeficiency virus 1, CCRF-CEM, dose 6.34 × 10^-7 Molar; read-out: Percent of Protection
Outcome: Satisfied for inhibition at 0.634 µM of at least 20%; Not satisfied for anything lower.

// below: answered molecules
Line notation	Cat
CN(c1ccccc1Cl)S(=O)(=O)c1ccccc1[N+](=O)[O-]	Not satisfied
CNc1ccccc1S(=O)(=O)c1ccccc1Cl	Not satisfied
CN(c1ccccc1)S(=O)(=O)c1cccc([N+](=O)[O-])c1	Not satisfied

Query: Quick check, inhibition at 0.634 µM >= 20%? O=[N+]([O-])c1ccccc1S(=O)(=O)c1cccc2c1NCCC2
Response: Not satisfied

Query: Reported inhibition at 0.634 µM reaches at least 20% for CNc1ccc(S(=O)(=O)c2ccccc2[N+](=O)[O-])cc1Cl ?
Response: Satisfied
